assay: qHTS of pediatric cancer cell lines to identify multiple opportunities for drug repurposing: Confirmatory screen for NB-EBc1 cells (AID 1347115); conditions: NB-EBc1 neuroblastoma cells, viability (cytotoxicity); series mostly up to 45.9 µM;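 note: cells exposed to compound for 48 h before the viability read; nearly all actives have a fitted effect of over 45% in size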
Results filed as inconclusive are left out. Active and inactive are the calls of the source. Calls come from the whole dose curve; as a rule, active = well fitted cell-killing curve with a large enough effect; inconclusive = small, poorly fitted or top-dose-only effect, or effect the other way; inactive = no such curve, though single readings can be large or run the other way.
In this exercise, the only acceptable responses are active, inactive

Status in this test for CC(C)C[C@H](NC(=O)[C@@H](NC(=O)c1cccc(-c2ccccc2)n1)[C@@H](C)O)B(O)O ?
active

Status in this test for COc1ccc(S(=O)(=O)Nc2cccnc2Nc2ccc(O)cc2)cc1 ?
active

Status in this test for CC1(C)O[C@@H]2C[C@H]3[C@@H]4CCC5=CC(=O)C=C[C@]5(C)[C@@H]4[C@@H](O)C[C@]3(C)[C@]2(C(=O)CO)O1 ?
inactive

Status in this test for COc1cc([C@@H]2c3cc4c(cc3[C@H](O)[C@H]3COC(=O)[C@@H]23)OCO4)cc(OC)c1OC ?
active

Status in this test for CC(=O)SCC(Cc1ccccc1)C(=O)NCC(=O)OCc1ccccc1 (stereo not given) ?
inactive

---

Test: qHTS profiling of the MIPE4 collection as inhibitors of Plasmodium falciparum (DD2) proliferation (AID 743345)
Details: P. falciparum Dd2 in erythrocytes, SYBR Green DNA, 72 h; at 28.5 µM (top of the series) unless noted
Procedure: Plasmodium falciparum is a virulent malarial parasite that kills 1-2 million people worldwide each year. […] Because mature erythrocytes lack DNA, only Plasmodium-derived DNA is detected. The SYBR Green viability assay was adapted from a method described previously (Plouffe et al., 2008). […] The following morning, fluorescence intensity at 485(14) nm excitation and 535(25) nm emission wavelengths was measured on an EnVision (Perkin Elmer) plate reader. […]
Classes by parasite growth remaining, % of DMSO control (lower = more inhibition): one = under 10%, two = from 10% up to 80%, three = 80% and over

Sort Cc1coc2c1C(=O)C(=O)c1c-2ccc2c(C)cccc12 into one of the categories.
two

Sort O=C1NC(O)CCN1[C@@H]1O[C@H](CO)[C@H](O)[C@H]1O (some centres undefined) into one of the categories.
three

Sort COc1cccc2c1C(=O)c1c(O)c3c(c(O)c1C2=O)C[C@@](O)(C(=O)CO)C[C@H]3O[C@H]1C[C@H](N)[C@H](O)[C@H](C)O1 into one of the categories.
one

Sort COC1=C(OC)C(=O)C(CC=C(C)CCC=C(C)CCC=C(C)CCC=C(C)CCC=C(C)CCC=C(C)CCC=C(C)CCC=C(C)CCC=C(C)CCC=C(C)C)=C(C)C1=O into one of the categories.
two

Sort C[C@@H]1[C@H](C)CC[C@]2(C(=O)O)CC[C@]3(C)C(=CC[C@@H]4[C@@]5(C)C[C@@H](O)[C@H](O)[C@@](C)(CO)[C@H]5CC[C@]43C)[C@@H]12 into one of the categories.
three

Sort NC(=NCCCCCCN=C(N)N=C(N)Nc1ccc(Cl)cc1)N=C(N)Nc1ccc(Cl)cc1 into one of the categories.
one

Sort COc1cc(OC)c(C=CS(=O)(=O)Cc2ccc(OC)c(NCC(=O)O)c2)c(OC)c1 into one of the categories.
three

Sort OCC(O)C(O)C(O)CO (centres undefined) into one of the categories.
three

Sort Cn1cc(CNCC2CCN(c3ncc(C(=O)NO)cn3)CC2)c2ccccc21 into one of the categories.
one

Sort CN1CCCN(C(=O)c2cccc(-c3ccc(C=C4C(=O)Nc5ccc(Cl)cc54)o3)c2)CC1 into one of the categories.
one

Sort CC(C)c1cnn2c(NCc3ccccc3)cc(NCCCCCCN)nc12 into one of the categories.
two

Sort CC(C)c1cc(C(C)C)c(CC(=O)NS(=O)(=O)Oc2c(C(C)C)cccc2C(C)C)c(C(C)C)c1 into one of the categories.
three

These measurements were taken from PubChem BioAssay (NCATS).
